For each of the compounds below, state its MIC.
Test system: Klebsiella pneumoniae X68
method: MIC, standard agar-dilution assay
Assay type: cell-based

[in] Note MIC for the compound shown: CCCCCCCCCCNC1(C)CC(OC2C(Oc3c4cc5cc3Oc3ccc(cc3Cl)C(O)C(NC(=O)C(CC(C)C)N(C)CCCCCCCCCC)C(=O)NC(CC(N)=O)C(=O)NC5C(=O)NC3C(=O)NC(C(=O)NC(C(=O)O)c5cc(O)cc(O)c5-c5cc3ccc5O)C(O)c3ccc(c(Cl)c3)O4)OC(CO)C(O)C2O)OC(C)C1O (stereo not drawn)
[out] > 128 µg/mL

[in] Respond only with MIC recorded for CCCCCCCCNC1(C)CC(OC2C(Oc3c4cc5cc3Oc3ccc(cc3Cl)C(O)C(NC(=O)C(CC(C)C)N(C)CCCCCCCC)C(=O)NC(CC(N)=O)C(=O)NC5C(=O)NC3C(=O)NC(C(=O)NC(C(=O)O)c5cc(O)cc(O)c5-c5cc3ccc5O)C(O)c3ccc(c(Cl)c3)O4)OC(CO)C(O)C2O)OC(C)C1O (stereo not drawn)
[out] > 128 µg/mL

[in] Identify measured MIC corresponding to CCCCCCCCCNC1(C)CC(OC2C(Oc3c4cc5cc3Oc3ccc(cc3Cl)C(O)C3NC(=O)C(NC(=O)C5NC(=O)C(CC(N)=O)NC(=O)C(NC(=O)C(CC(C)C)NC)C(O)c5ccc(c(Cl)c5)O4)c4ccc(O)c(c4)-c4c(O)cc(O)cc4C(C(=O)O)NC3=O)OC(CO)C(O)C2O)OC(C)C1O (stereo not drawn)
[out] > 128 µg/mL

Origin of measurements: patent US4698327A
